TESTED TARGET: T1, human CD20 (human, UniProt P11836 1-297)
T1 construct: whole, on cells; also called cell surface CD20
T1 sequence (looked up): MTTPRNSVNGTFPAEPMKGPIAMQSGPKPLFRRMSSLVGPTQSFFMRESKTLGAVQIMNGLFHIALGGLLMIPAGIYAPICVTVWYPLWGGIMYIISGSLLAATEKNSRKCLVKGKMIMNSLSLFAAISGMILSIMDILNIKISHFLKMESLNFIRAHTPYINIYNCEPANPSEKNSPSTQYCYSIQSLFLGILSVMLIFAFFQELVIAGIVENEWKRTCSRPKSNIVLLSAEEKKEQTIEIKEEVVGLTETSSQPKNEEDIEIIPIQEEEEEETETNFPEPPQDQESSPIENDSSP
TEST: indirect immunofluorescence, flow cytometry, BJAB cells, saturating mAb
Readings of mean linear fluorescence intensity for the listed binders

1) HB20-3 monoclonal antibody (antibody, V domains shown, Used as tissue culture supernatant; also called HB20-03; HB13c) VH: EVQLQESGAELVKPGASVKMSCKASGFTFTNYNMHWLKQTPGQGLEWIGAIYPENGDTSYNQKFKGKATLTADKASSTAYMHLSSLTSEDSAVYFCARFYYYGSYYGAMDYWGQGTSVTVSS VL: DIQMTQSPASLSASVGETVTITCRASGNIHNYLAWYQQKQGKSPQLLVYNAKTLADGVPSRFSGSGSGTQFSLKINSLQPEDFGSYYCQHFWSTPWTFGGGTKLEIKR : 1200 mean linear fluorescence intensity

Ask: # lookup: mean linear fluorescence intensity of 1F5 anti-CD20 monoclonal antibody (antibody, V domains shown) VH: QVQLRQPGAELVKPGASVKMSCKASGYTFTSYNMHWVKQTPGQGLEWIGAIYPGNGDTSYNQKFKGKATLTADKSSSTAYMQLSSLTSEDSAVYYCARSHYGSNYVDYFDYWGQGTTLTVSS VL: DIVLSQSPAILSASPGEKVTMTCRASSSLSFMHWYQQKPGSSPKPWIYATSNLASGVPARFSGSGSGTSYSLTISRVEAEDAATYFCHQWSSNPLTFGAGTKLELK
Result: 386 mean linear fluorescence intensity

Ask: Query HB20-4 monoclonal antibody (antibody, V domains shown, Used as tissue culture supernatant; also called HB20-04; HB13d) VH: EVQLQESGAELVKPGASVKMSCKASGFTFTNYNMHWVKQTPGQGLEWIGAIYPENGDTSYNQRFKGKATLTADKSSSTAYMHLSSLTSEDTAVYFCARFYYYGSYYGALDYWGQGTSVTVSS VL: DIQMTQSPASLSASVGETVTITCRASGSIHNYLAWYQQKLGKSPQLLVYNAKTLADGVPSRFSGSGSGTQFSLKINSLQPEDFGSYYCQHFWSIPWTFGGGTKLEIKR next
Result: 1100 mean linear fluorescence intensity
